experiment: shake flask on a mixture of 185; loss from the water phase only; LC-QTOF peak areas; details: room
quantity.kind: log partition oleylalcohol / HPLC water, unbuffered, traces of methanol / DMSO (log10)
The response must be a number in log10 with no trailing unit.

For orientation, consider the following solved cases.
[[record]]
molecule = "Nc1cc2c3c(c1)C(c1ccccc1)=N[C@@H](NC(=O)c1cccnc1)C(=O)N3CC2"
unit_tag = "log10"
obs_value = 1.111

[[record]]
molecule = "COC(=O)C(C)N(C(=O)c1ccco1)c1c(C)cccc1C (stereo not shown)"
unit_tag = "log10"
obs_value = 2.215

[[record]]
molecule = "C[C@H](CCC(=O)O)[C@H]1CC[C@H]2[C@@H]3CC[C@@H]4C[C@H](O)CC[C@]4(C)[C@H]3CC[C@]12C"
unit_tag = "log10"
obs_value = -0.1203


Here is the next item to consider.
Input CO/C=C(/C(=O)OC)c1ccccc1Oc1cc(Oc2ccccc2C#N)ncn1 . Output log partition oleylalcohol / HPLC water, unbuffered, traces of methanol / DMSO: 2.323
